tested on: MEK; assay: Cellular Assay for Measuring MEK Inhibition (inhibition of ERK phosphorylation in C26 cells, Western blot); assay type: cell-based, murine; settings: 1 μM; ERK phosphorylation in C26 cells
Assign 1 (yes) whenever % Inhibition @ 1 μM does not fall below 30%; assign 0 (no) whenever it does.

Request: Dear colleague, could you confirm whether Cc1cc(I)ccc1Nc1c(C(=O)NOCC(C)O)cc(Cl)c(F)c1F (stereo not shown) [Example 163] has % Inhibition @ 1 μM at or above 30%?
Response: 1 (yes)

Request: Dear colleague, could you confirm whether CC(C)(CO)CONC(=O)c1cc(Cl)c(F)c(F)c1Nc1ccc(F)cc1F [Example 203] has % Inhibition @ 1 μM at or above 30%?
Response: 0 (no)

Request: Dear colleague, could you confirm whether Cc1cc(I)ccc1Nc1c(C(=O)NOCC(C)(C)O)cc(Br)c(F)c1F [Example 172] has % Inhibition @ 1 μM at or above 30%?
Response: 1 (yes)

Request: Dear colleague, could you confirm whether O=C(NOCC1(CO)CC1)c1ccc(F)c(F)c1Nc1ccc(F)cc1F [Example 222] has % Inhibition @ 1 μM at or above 30%?
Response: 0 (no)

Request: Dear colleague, could you confirm whether O=C(NOCC(O)CN1CCOCC1)c1cc(Cl)c(F)c(F)c1Nc1ccc(F)cc1F (stereo not shown) [Example 154] has % Inhibition @ 1 μM at or above 30%?
Response: 0 (no)

Request: Dear colleague, could you confirm whether CC(C)(O)CONC(=O)c1cc(Cl)c(F)c(F)c1Nc1ccc(I)cc1F [Example 179] has % Inhibition @ 1 μM at or above 30%?
Response: 1 (yes)

Hello, the source for this data is patent US6960614B2, in case you need it.
